Reported values of pKi for individual entries
Molecular target: D(2) dopamine receptor (Homo sapiens, UniProt P14416)
Sequence (P14416 whole entry): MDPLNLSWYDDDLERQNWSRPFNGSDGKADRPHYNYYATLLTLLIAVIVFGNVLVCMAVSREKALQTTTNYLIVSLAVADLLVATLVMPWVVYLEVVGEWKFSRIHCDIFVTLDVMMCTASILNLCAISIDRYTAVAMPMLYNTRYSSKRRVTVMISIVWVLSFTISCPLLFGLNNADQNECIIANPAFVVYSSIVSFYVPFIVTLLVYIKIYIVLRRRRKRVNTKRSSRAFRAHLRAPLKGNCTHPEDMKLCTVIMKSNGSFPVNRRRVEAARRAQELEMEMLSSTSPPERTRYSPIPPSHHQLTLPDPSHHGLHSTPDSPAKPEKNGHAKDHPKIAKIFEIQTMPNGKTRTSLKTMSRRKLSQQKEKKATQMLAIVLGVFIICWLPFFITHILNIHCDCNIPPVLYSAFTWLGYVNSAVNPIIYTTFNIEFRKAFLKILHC
Assay: In vitro displacement of [3H]spiperone from the recombinant human dopamine receptor D2L stably expressed in CHO cells
Type: cell-based
Just so you know, pKi here is -log10 of the concentration in molar units; reply with that number alone.

SMILES_REPR: COc1ccc(Br)cc1-c1nc(CN2CCN(Cc3ccccc3)CC2)co1
pKi: 5.82

SMILES_REPR: Oc1ccc(Br)cc1-c1nc(CN2CCN(c3ccccc3)CC2)co1
pKi: 5.18

SMILES_REPR: COc1ccc(Br)cc1-c1nc(CNC[C@@H]2CCN(Cc3ccccc3)C2)cs1
pKi: 6.38

SMILES_REPR: c1ccc(-c2nc(CN3CCN(c4ccccc4)CC3)co2)cc1
pKi: 5.52

SMILES_REPR: c1ccc(CN2CCN(Cc3csc(-c4ccccc4)n3)CC2)cc1
pKi: 4.55

So what does the record say about pKi for COc1ccc(Br)cc1-c1ncc(CNC[C@@H]2CCN(Cc3ccccc3)C2)[nH]1 ? 5.20

###

Molecular target: UniProtKB P21917
Sequence (P21917 whole entry): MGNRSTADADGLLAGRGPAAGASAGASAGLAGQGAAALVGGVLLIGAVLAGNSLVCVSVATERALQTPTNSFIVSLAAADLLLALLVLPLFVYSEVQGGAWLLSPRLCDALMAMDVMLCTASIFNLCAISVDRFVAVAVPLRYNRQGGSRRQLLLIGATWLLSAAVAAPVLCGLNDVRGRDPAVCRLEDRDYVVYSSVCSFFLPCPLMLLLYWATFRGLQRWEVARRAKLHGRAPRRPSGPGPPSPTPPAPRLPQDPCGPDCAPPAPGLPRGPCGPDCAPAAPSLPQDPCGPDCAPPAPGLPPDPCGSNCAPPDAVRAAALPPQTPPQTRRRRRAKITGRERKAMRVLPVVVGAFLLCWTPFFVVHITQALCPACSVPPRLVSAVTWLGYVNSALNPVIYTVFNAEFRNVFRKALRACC
Assay: In vitro displacement of [3H]spiperone from the recombinant human dopamine receptor D4 expressed in CHO cells
Type: cell-based
PARAMETER_MEASURED: pKi
Remember the convention: pKi equals -log10 of concentration in molar.

Form field: pKi recorded for c1ccc(-c2nc(CN3CCN(c4ccccc4)CC3)cs2)cc1 with UniProtKB P21917 (enter value) 6.35

###

Biological target: D(1A) dopamine receptor (Bos taurus)
Test: In vitro displacement of [3H]- SCH 23390 from the dopamine receptor D1 of bovine striatal membrane
PARAMETER_MEASURED: Ki (µM)
// note: answer is a bare numeric in µM

COMPOUND: COc1ccc(Br)cc1-c1nc(CNC2CCN(Cc3ccccc3)CC2)cs1
VALUE_UNIT: µM
Ki: 4.5

# query: Ki of entry c1ccc(-c2nc(CN3CCN(c4ccccc4)CC3)co2)cc1 11.5

Which value of Ki has been reported for c1ccc(-c2nc(CN3CCN(c4ccccc4)CC3)cs2)cc1 in the records? 19.5

Requested field: Ki. Item: COc1ccc(Br)cc1-c1nc(CN2CCN(c3ccccc3)CC2)co1 4.85

Param item = COc1ccc(Br)cc1-c1nc(CN(C)C[C@@H]2CCN(Cc3ccccc3)C2)co1 ; retrieve measured Ki. 5.45

What does the record list as Ki for COc1ccc(Br)cc1-c1nc(CN[C@@H]2CCN(Cc3ccccc3)C2)co1 ? 8

###

Target: D(2) dopamine receptor (Homo sapiens, UniProt P14416)
Test: In vitro displacement of [3H]spiperone from the recombinant human dopamine receptor D2 short form expressed in CHO cells
Assay type: cell-based
PARAMETER_MEASURED: Ki (nM)
Your answer should be a plain number; it is taken to be in nM.

Solved entries (count: 2):
SMILES_REPR: COc1ccc(Br)cc1-c1nc(CN2CCN(Cc3ccccc3)CC2)co1
VALUE_UNIT: nM
Ki: 790
//
SMILES_REPR: c1ccc(-c2nc(CN3CCN(c4ccccc4)CC3)cs2)cc1
VALUE_UNIT: nM
Ki: 1060

For the next question, use this compound.
Tell me reported Ki for COc1ccc(Br)cc1-c1nc(CNCC[C@@H]2CCN(Cc3ccccc3)C2)co1 , tested with D(2) dopamine receptor (Homo sapiens, UniProt P14416). 1100

###

Target: D(1A) dopamine receptor (Bos taurus, UniProt Q95136)
Sequence (Q95136 whole entry): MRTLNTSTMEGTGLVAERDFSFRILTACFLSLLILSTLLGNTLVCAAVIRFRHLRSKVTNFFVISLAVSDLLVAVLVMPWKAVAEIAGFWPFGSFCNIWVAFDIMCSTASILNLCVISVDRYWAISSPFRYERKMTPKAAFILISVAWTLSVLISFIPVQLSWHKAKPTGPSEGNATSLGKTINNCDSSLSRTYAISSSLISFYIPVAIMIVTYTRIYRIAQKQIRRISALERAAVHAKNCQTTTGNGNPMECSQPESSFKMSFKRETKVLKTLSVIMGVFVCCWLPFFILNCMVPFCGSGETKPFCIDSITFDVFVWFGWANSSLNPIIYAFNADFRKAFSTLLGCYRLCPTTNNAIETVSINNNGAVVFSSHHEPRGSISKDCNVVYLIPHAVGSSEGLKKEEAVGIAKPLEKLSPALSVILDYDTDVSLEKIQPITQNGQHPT
Experiment: In vitro displacement of [3H]- SCH 23390 from the dopamine receptor D1 of bovine striatal membrane
Consider the following compounds and their measured Ki readings.
# value in µM; strip the unit string

Completed entries (count: 3):
COMPOUND: c1ccc(CN2CCC(NCc3coc(-c4ccccc4)n3)CC2)cc1
Ki, µM: 30
--
COMPOUND: COc1ccc(Br)cc1-c1nc(CN2CCN(Cc3ccccc3)CC2)cs1
Ki, µM: 10.5
--
COMPOUND: c1ccc(CN2CCC(NCc3csc(-c4ccccc4)n3)CC2)cc1
Ki, µM: 6.8

Data request, read-out Ki, for COc1ccc(Br)cc1-c1nc(CN2CCN(c3ccccc3)CC2)cs1 1.25

Any idea what Ki was measured for Oc1ccc(Br)cc1-c1nc(CN2CCN(c3ccccc3)CC2)co1 ? 17.5

Entry c1ccc(CN2CC[C@@H](CNCc3csc(-c4ccccc4)n3)C2)cc1 (stereo in doubt; 4q) : reported Ki = ? 8.85

###

Molecular target: D(1A) dopamine receptor (Bos taurus, UniProt Q95136)
Assay: In vitro displacement of [3H]- SCH 23390 from the dopamine receptor D1 of bovine striatal membrane
PARAMETER_MEASURED: Ki (µM)
Just the number please, in µM, no unit attached.

Recorded results for 3 molecules are shown here.
MOLECULE: COc1ccc(Br)cc1-c1ncc(CNC[C@@H]2CCN(Cc3ccccc3)C2)[nH]1
PARAMETER_MEASURED: Ki
RESULT_NUMBER: 8.9
--
MOLECULE: COc1ccc(Br)cc1-c1nc(CNC[C@@H]2CCN(Cc3ccccc3)C2)cs1
PARAMETER_MEASURED: Ki
RESULT_NUMBER: 4.95
--
MOLECULE: c1ccc(CN2CC[C@@H](CNCc3csc(-c4ccccc4)n3)C2)cc1 (stereo in doubt)
PARAMETER_MEASURED: Ki
RESULT_NUMBER: 13.5

Continue with the molecule presented below.
Which value of Ki has been reported for COc1c(-c2nc(CNC[C@@H]3CCN(Cc4ccccc4)C3)co2)cc(Br)c2ccccc12 in the records? 100
